Tested on: BT-549 breast
assay: NCI tumour cell line growth inhibition, 48 h
Listed next: entries and their corresponding TGI.

{"compound": "Cc1cc2nc3c(C#N)c4c(c(Nc5ccc(F)cc5)n3c2cc1C)CCC4", "TGI": "> 100 µM"}
{"compound": "CN(C)CN1CSC(=S)N(CN(C)C)C1", "TGI": "> 100 µM"}
{"compound": "COc1cc(C2S/C(=C/c3ccccc3)C(=O)N2Cc2ccccc2)cc(OC)c1OC (stereo unspecified)", "TGI": "> 100 µM"}
{"compound": "O=C(c1ccccc1)C(Cl)C(Cl)c1ccccc1 (stereo unspecified)", "TGI": "6.12 µM"}
{"compound": "CCN1c2ccccc2NC(=S)c2c1n[nH]c2-c1ccccc1", "TGI": "> 100 µM"}
{"compound": "CC(C)(C)NC1=NC(C(F)(F)F)(C(F)(F)F)NC(=O)N1", "TGI": "> 100 µM"}
{"compound": "Cc1ccccc1C1=C(c2cn(C)c3ccccc23)C(=O)NC1=O", "TGI": "> 25 µM"}
{"compound": "Cc1cc2cc3cc(C)c(N)cc3nc2cc1N", "TGI": "> 44.5 µM"}
{"compound": "O=C1c2ccccc2C(=O)N1n1c(Cc2ccc(Cl)cc2)n[nH]c1=O", "TGI": "> 100 µM"}
{"compound": "CSc1ncc2c(n1)-c1ccccc1OC2N1CCOCC1 (stereo unspecified)", "TGI": "> 100 µM"}
{"compound": "CCn1c(-c2nonc2N)nc2c(C#CC(C)(C)O)ncc(OC3CCNCC3)c21", "TGI": "> 25 µM"}

====

System: RPMI-8226 leukemia
assay: NCI tumour cell line growth inhibition, 48 h
# GI50 per entry
reportedProperty: GI50

{"molecule": "CCN1CCC(CC(=O)Nc2n[nH]c3nnc(-c4cccc(F)c4F)cc23)CC1", "recordedResult": "> 25 µM"}
{"molecule": "COc1ccc2c(c1)N(Cc1ccc(Cl)cc1)CCC2N1CCCC1=O (stereo not given)", "recordedResult": "1.46 µM"}
{"molecule": "CN(C)C1CCN(Cc2ccc(NC(=O)c3cncc(C#Cc4cnc(N)c5ncccc45)c3)cc2C(F)(F)F)CC1", "recordedResult": "4.31 µM"}
{"molecule": "O=[N+]([O-])c1ccc(/C=C/c2nc3ccc(Cl)cc3[nH]2)cc1", "recordedResult": "31.4 µM"}
{"molecule": "COC(=O)c1cc(NC(=O)c2cc(NC(=O)c3cc([N+](=O)[O-])n(C)c3)cn2C)cn1C", "recordedResult": "> 100 µM"}

====

# Lookup of reported TGI keyed by entry
Test system: SK-MEL-2 melanoma
assay: NCI tumour cell line growth inhibition, 48 h
reportedProperty: TGI (µM)

{"compound": "Cc1ccc(C)c2c1C(=O)N(c1ccc(F)cc1F)C2=O", "systemUnderTest": "SK-MEL-2 melanoma", "relationSymbol": ">", "recordedResult": 100}
{"compound": "C[C@@H](N)COc1ccc(-c2cnc3ccc(N[C@H](C)c4cccc(F)c4)nn23)cc1", "systemUnderTest": "SK-MEL-2 melanoma", "relationSymbol": "=", "recordedResult": 4.48}
{"compound": "CN(c1ccccc1)S(=O)(=O)c1ccc([N+](=O)[O-])cc1", "systemUnderTest": "SK-MEL-2 melanoma", "relationSymbol": ">", "recordedResult": 100}
{"compound": "COc1ccc2c(c1)N(Cc1ccc(Cl)cc1)CCC2N1CCCC1=O (stereo not given)", "systemUnderTest": "SK-MEL-2 melanoma", "relationSymbol": "=", "recordedResult": 28.8}
{"compound": "CC(=O)C1=C(C)O[C@@H]2O[C@H](COCc3ccccc3)[C@@H](OCc3ccccc3)[C@H](O)[C@@H]2S1", "systemUnderTest": "SK-MEL-2 melanoma", "relationSymbol": "=", "recordedResult": 39.1}
{"compound": "O=[N+]([O-])c1ccc(/C=C/c2nc3ccc(Cl)cc3[nH]2)cc1", "systemUnderTest": "SK-MEL-2 melanoma", "relationSymbol": ">", "recordedResult": 100}
{"compound": "CN(C)CN1CSC(=S)N(CN(C)C)C1", "systemUnderTest": "SK-MEL-2 melanoma", "relationSymbol": "=", "recordedResult": 96.3}
{"compound": "OCC1OC2c3ccccc3COC2C1OCc1ccccc1 (stereo not given)", "systemUnderTest": "SK-MEL-2 melanoma", "relationSymbol": ">", "recordedResult": 100}
{"compound": "CN(C)C(=O)Oc1c(Br)cc(Br)cc1C(=O)OCc1ccccc1", "systemUnderTest": "SK-MEL-2 melanoma", "relationSymbol": ">", "recordedResult": 71.2}
{"compound": "COc1cccc2c1NC(=O)Cc1c-2[nH]c2ccccc12", "systemUnderTest": "SK-MEL-2 melanoma", "relationSymbol": ">", "recordedResult": 100}
{"compound": "N#CC(C#N)=NNc1ccc2cn[nH]c2c1", "systemUnderTest": "SK-MEL-2 melanoma", "relationSymbol": ">", "recordedResult": 100}
{"compound": "COc1cccc2c1C(=O)c1c(O)c3c(c(O)c1C2=O)C[C@@](O)(C(C)=O)CC3S(=O)(=O)O (stereo not given in full)", "systemUnderTest": "SK-MEL-2 melanoma", "relationSymbol": ">", "recordedResult": 100}
{"compound": "COc1cc(OC)cc(Oc2cnc3cc(N)cc(N)c3n2)c1", "systemUnderTest": "SK-MEL-2 melanoma", "relationSymbol": "=", "recordedResult": 43.3}
{"compound": "CCC12CCCN(Cc3ccccc3)C1c1c(n(C)c3ccccc13)C(CO)C2 (stereo not given)", "systemUnderTest": "SK-MEL-2 melanoma", "relationSymbol": "=", "recordedResult": 107}
{"compound": "COC1=C[C@]2(CCC(=O)O2)[C@@H]2Cc3ccccc3[C@H](O)[C@@H]2C1=O", "systemUnderTest": "SK-MEL-2 melanoma", "relationSymbol": "=", "recordedResult": 96.2}

Data provenance: PubChem BioAssay (NCI)
